Data credit: ChEMBL document CHEMBL5724914

STUDY_CONDITIONS: human gut metagenome, 24 h, 2 µM; also: call rule not given here
MEASUREMENT_LABEL: Bacterial Biotransformation

Below, 5 compounds whose answers are already recorded.
>>> value_observed("COc1cc2nc(N3CCN(C(=O)C4CCCO4)CC3)nc(N)c2cc1OC (stereo not drawn) [TERAZOSIN]")
"Compound metabolized"
>>> value_observed("COc1ccnc(C[S+]([O-])c2nc3ccc(OC(F)F)cc3[nH]2)c1OC (stereo not drawn) [PANTOPRAZOLE]")
"Compound metabolized"
>>> value_observed("COc1ccc(CN2CCNCC2)c(OC)c1OC.Cl.Cl [TRIMETAZIDINE DIHYDROCHLORIDE]")
"Compound NOT metabolized"
>>> value_observed("Cc1ccccc1C(OCCN(C)C)c1ccccc1.O=C(O)CC(O)(CC(=O)O)C(=O)O (stereo not drawn) [ORPHENADRINE CITRATE]")
"Compound NOT metabolized"
>>> value_observed("O=C(O)CCC(=O)O.O=C(O[C@H]1CN2CCC1CC2)N1CCc2ccccc2[C@@H]1c1ccccc1 [SOLIFENACIN SUCCINATE]")
"Compound metabolized"

Exam item: For the compound CSc1ccc2c(c1)C(N1CCN(C)CC1)Cc1ccccc1S2.O=C(O)/C=C\C(=O)O (stereo not drawn) , what Bacterial Biotransformation is on record?
Marked response: Compound NOT metabolized

Exam item: For the compound CN1CCC[C@@H]1CCO[C@](C)(c1ccccc1)c1ccc(Cl)cc1.O=C(O)/C=C/C(=O)O [CLEMASTINE FUMARATE] , what Bacterial Biotransformation is on record?
Marked response: Compound NOT metabolized

Exam item: For the compound CCCN1C[C@H](CSC)C[C@@H]2c3cccc4[nH]cc(c34)C[C@H]21.CS(=O)(=O)O [PERGOLIDE MESYLATE] , what Bacterial Biotransformation is on record?
Marked response: Compound NOT metabolized
